Source listed as patent US20260184782A1.

# TARGET ENTITY: T1, recombinant human TIGIT (human, UniProt Q495A1 22-141, limits assumed)
# T1 construct: recombinant human TIGIT used in Carterra SPR; also called hTIGIT
# T1 sequence (looked up): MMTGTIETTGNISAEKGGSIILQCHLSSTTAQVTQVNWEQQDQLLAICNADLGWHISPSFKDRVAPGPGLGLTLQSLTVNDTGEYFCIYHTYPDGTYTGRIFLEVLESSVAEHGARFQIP
# EXPERIMENT: SPR Carterra, average
Reported kon values for a set of binders
Use M⁻¹ s⁻¹ as the unit, but write only the number.

[
  {
    "BINDER": "TIGIT-SC155 (Fc fusion, VHH-Fc fusion in assay) VHH: EVQLVESGGGLVQPGGSLRLSCAASGNTFSGGFMGWFRQAPGKEREWVASVLRGGYTWYADSVKGRFTISADNSKNTAYLQMNSLKPEDTAVYYCAGDYRGFEMAFDPWGQGTLVTVSS",
    "MEASUREMENT UNIT": "M⁻¹ s⁻¹",
    "kon": 51300
  }
]

Item under review: TIGIT-SC102 (Fc fusion, VHH-Fc fusion in assay) VHH: EVQLVESGGGLVQPGGSLRLSCAASGSTFSKHHAMGWFRQAPGKEREFVAAIRWSGGNTYYADSVKGRFTISADNSKNTAYLQMNSLKPEDTAVYYCARWYSSSGDYYYMDVWGQGTLVTVSS . Reported kon?
43500

Given TIGIT-SC193 (Fc fusion, VHH-Fc fusion in assay) VHH: EVQLVESGGGLVQPGGSLRLSCAASGFTFSDYWMGWFRQAPGKEREFVAAISRSGTLKAYADSVKGRFTISADNSKNTAYLQMNSLKPEDTAVYYCARGSGWPKIHFDYWGQGTLVTVSS , state its recorded kon.
211000

kon lookup needed for TIGIT-SC2 (Fc fusion, VHH-Fc fusion in assay) VHH: EVQLVESGGGLVQPGGSLRLSCAASGFTLSSNWMGWFRQAPGKEREMVAAIDWSGGSALYADSVKGRFTISADNSKNTAYLQMNSLKPEDTAVYYCAKDALSNSARFDHWGQGTLVTVSS , thanks.
124000
